Source of measurements: PubChem BioAssay (EPA / NIEHS)

Read-out: Thyroid Hormone Responsive (THRSP), THRSP (gene 7069)
Test: LTEA_HepaRG_THRSP: Life Technologies and Expression Analysis (LTEA) Assay for Thyroid Hormone Responsive (THRSP) using HepaRG (AID 2283536)
Settings: mRNA level, 48 h; actives raise or lower the signal
Active and inactive are the calls of the source. Rule for the calls: active = hit-call score of the fitted dose curve at least 0.9, where 1 is the maximum; inactive = score below 0.9.
Field 'call' accepts label 1 for active, label 0 for inactive

# MOLECULE, DISCRETE LABEL
rows = [
    ("O=C(O)Cc1ccccc1Nc1c(Cl)cccc1Cl", "label 0"),
]

Tell me the recorded outcome of this test for `CCOc1ccc2c(c1)C(C)=CC(C)(C)N2` .
label 0

Tell me the recorded outcome of this test for `COc1cc(C=O)ccc1O` .
label 0

Tell me the recorded outcome of this test for `O=c1[nH]cc(F)c(=O)[nH]1` .
label 1

Tell me the recorded outcome of this test for `Cc1ccc(C)c(O)c1C` .
label 0

Tell me the recorded outcome of this test for `CC(=O)OC/C=C(\C)CCC=C(C)C` .
label 0

Tell me the recorded outcome of this test for `NCC1(Cc2noc(=O)[nH]2)CCCCC1` .
label 0

Tell me the recorded outcome of this test for `CCCCCCCCCCO` .
label 0

Tell me the recorded outcome of this test for `COc1ccc(S(=O)(=O)N2C(=O)[C@@](c3ccccc3OC)(N3C[C@H](O)C[C@H]3C(=O)N(C)C)c3cc(Cl)ccc32)c(OC)c1` .
label 1

* * *

Read-out: Tissue plasminogen activator (tPA), PLAT (gene 5327)
Assay: BSK_BE3C_tPA: BioMAP Diversity Plus: BE3C Assay for Tissue plasminogen activator (tPA) Biomarker Activity (AID 2283041);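 note: tPA level quantified by ELISA one day after compound addition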
Settings: primary human bronchial epithelial cells; actives raise or lower the signal
The source made the active and inactive calls. Rule for the calls: active = hit-call score of the fitted dose curve at least 0.9, where 1 is the maximum; inactive = score below 0.9.

# INPUT SMILES, outcome
records = [
    ("COc1ccc(C)cc1N", "inactive"),
    ("Nc1ccc2c(c1)C(=O)c1ccccc1C2=O", "inactive"),
    ("CN1CCCC1=O", "inactive"),
]

* * *

Read-out: HGF (gene 3082)
Experiment: LTEA_HepaRG_HGF: Life Technologies and Expression Analysis (LTEA) Assay for Hepatocyte Growth Facto (HGF) using HepaRG (AID 2283505)
Conditions: mRNA level, 48 h; actives raise or lower the signal
Calls of active or inactive are those of the source. Rule for the calls: active = hit-call score of the fitted dose curve at least 0.9, where 1 is the maximum; inactive = score below 0.9.
Field 'call' accepts 1 (active), -1 (inactive)

Below, 5 compounds whose answers are already recorded.
# COMPOUND, DISCRETE LABEL
records = [
    ("NC(=O)Cn1c(=O)cc(CCN2CCN(c3nccc4sccc34)CC2)c2ccc(F)cc21", -1),
    ("CC1=C(/C=C/C(C)=C/C=C/C(C)=C/CO)C(C)(C)CCC1", -1),
    ("Cc1ccccc1Cl", -1),
    ("COc1ccc(S(=O)(=O)N2C(=O)[C@@](c3ccccc3OC)(N3C[C@H](O)C[C@H]3C(=O)N(C)C)c3cc(Cl)ccc32)c(OC)c1", 1),
    ("CC1(C)CC(N=C=O)CC(C)(CN=C=O)C1 (centres undefined)", -1),
]

Tell me the recorded outcome of this test for `COc1ccc2c(c1)c(CC(=O)O)c(C)n2C(=O)c1ccc(Cl)cc1` .
-1

Tell me the recorded outcome of this test for `CCCCCCCC=O` .
-1

Tell me the recorded outcome of this test for `Cc1ccc(C)c(C)c1` .
-1

Tell me the recorded outcome of this test for `Cc1cccc(C)c1O` .
-1

Tell me the recorded outcome of this test for `NCCO` .
-1

Tell me the recorded outcome of this test for `Nc1ccccc1N` .
-1

Tell me the recorded outcome of this test for `O=C(OCCCCCOC(=O)c1ccccc1)c1ccccc1` .
1

Tell me the recorded outcome of this test for `Cc1ccc(N(C)C)cc1` .
-1

Tell me the recorded outcome of this test for `NS(=O)(=O)c1cc2c(cc1Cl)NCNS2(=O)=O` .
-1

Tell me the recorded outcome of this test for `C1CCC(SSC2CCCCC2)CC1` .
-1

Tell me the recorded outcome of this test for `Oc1ccc2c(c1)OC[C@@H](N1CCC(O)(c3ccc(F)cc3)CC1)[C@H]2O` .
-1

Tell me the recorded outcome of this test for `Nc1nc(N)c2nc(CNc3ccc(C(=O)N[C@@H](CCC(=O)O)C(=O)O)cc3)cnc2n1` .
-1

Tell me the recorded outcome of this test for Cc1nc(-c2ccc3c(c2)CCN(CCC2CCC(NC(=O)/C=C/c4ccc(F)cc4)CC2)CC3)no1 (centres undefined) .
-1

Tell me the recorded outcome of this test for `CCCCCCCCCCCCCCCCCC(=O)O` .
-1

Tell me the recorded outcome of this test for `CNCc1cc(F)ccc1Oc1ccc(Cl)c(Cl)c1` .
1

Tell me the recorded outcome of this test for `COC(=O)c1ccc(O)cc1` .
-1

Tell me the recorded outcome of this test for `Cc1ccc2ncccc2c1` .
-1

Tell me the recorded outcome of this test for `Clc1cc(Cl)c(Cl)cc1Cl` .
-1

Tell me the recorded outcome of this test for `Cc1oc(-c2ccccc2)nc1CCOc1cccc2c1ccn2CCC(=O)O` .
-1

Tell me the recorded outcome of this test for `CCOC(=O)C(C)(C)Oc1ccc(Cl)cc1` .
-1

Tell me the recorded outcome of this test for `Cc1cc(=O)[nH]c(=S)[nH]1` .
-1

Tell me the recorded outcome of this test for `CC(C)c1ccc(C(=O)N=C(N)N)cc1S(C)(=O)=O` .
1

Tell me the recorded outcome of this test for `Cc1nc(C)nc(N2C[C@@H](C)N(c3ccnc([C@@H](C)O)n3)[C@@H](C)C2)n1` .
1

Tell me the recorded outcome of this test for `CCCCCCCCCCCC(=O)OC` .
-1

* * *

Read-out: Pyruvate Dehydrogenase Kinase 4 (PDK4), PDK4 (gene 5166)
Test: LTEA_HepaRG_PDK4: Life Technologies and Expression Analysis (LTEA) Assay for Pyruvate Dehydrogenase Kinase 4 (PDK4) using HepaRG (AID 2283525)
Settings: mRNA level, 48 h; actives raise or lower the signal
The source made the active and inactive calls. The calls were made as follows: active = hit-call score of the fitted dose curve at least 0.9, where 1 is the maximum; inactive = score below 0.9.
Field 'call' accepts T = active, F = inactive

Tell me the recorded outcome of this test for `O=c1[nH]cc(F)c(=O)[nH]1` .
T

Tell me the recorded outcome of this test for `C[C@]12C=CC(=O)C=C1CC[C@@H]1[C@@H]2C(=O)C[C@@]2(C)[C@H]1CC[C@]2(O)C(=O)CO` .
F

* * *

Test: BSK_3C_VCAM1: BioMAP Diversity Plus: 3C Assay for Vascular cell adhesion molecule 1 (VCAM1) Biomarker Activity (AID 2282999)
Settings: BioMAP 3C HUVEC, VCAM1 ELISA, cytokine-stimulated; actives raise or lower the signal
Procedure: BSK_3C is a cell-based, multiplexed-readout assay that uses umbilical vein endothelium, a human vascular primary cell, with measurements taken at 24 hours after chemical dosing in a 96-well plate.BSK_3C_VCAM1 is an assay component measured in the BSK_3C assay. It measures VCAM-1 antibody related to regulation of gene expression using ELISA technology.Data from the assay component BSK_3C_VCAM1 was analyzed into 1 assay endpoint. […]
Activity calls are given as the source filed them. How the source made its calls: active means hit-call score of the fitted dose curve at least 0.9, where 1 is the maximum; inactive means score below 0.9.
Field 'call' accepts YES = active, NO = inactive

Tell me the recorded outcome of this test for `NCC1(Cc2noc(=O)[nH]2)CCCCC1` .
NO

Tell me the recorded outcome of this test for `Cc1ccc(C)c(O)c1C` .
NO

Tell me the recorded outcome of this test for `CN[C@H]1CC[C@@H](c2ccc(Cl)c(Cl)c2)c2ccc(S(N)(=O)=O)cc21` .
YES

* * *

Read-out: Bcl-2 (BAX) gene, BAX (gene 581)
Experiment: LTEA_HepaRG_BAX: Life Technologies and Expression Analysis (LTEA) Assay for Bcl-2 (BAX) gene using HepaRG (AID 2283470)
Settings: mRNA level, 48 h; actives raise or lower the signal
Activity calls are given as the source filed them. How the source made its calls: active means hit-call score of the fitted dose curve at least 0.9, where 1 is the maximum; inactive means score below 0.9.

# INPUT SMILES, AC50
rows = [
    ("COc1cc(S(=O)(=O)O)c(C)cc1N=Nc1c(O)ccc2cc(S(=O)(=O)O)ccc12", "inactive"),
    ("Nc1ccccc1N", "40.6 µM (active)"),
    ("COc1ccc2c(c1)c(CC(=O)O)c(C)n2C(=O)c1ccc(Cl)cc1", "inactive"),
]

* * *

Read-out: urokinase plasminogen activator (uPA), PLAU (gene 5328)
Test: BSK_BE3C_uPA: BioMAP Diversity Plus: BE3C Assay for urokinase plasminogen activator (uPA) Biomarker Activity (AID 2283038)
Conditions: primary human bronchial epithelial cells; actives raise or lower the signal
Activity calls are given as the source filed them. How the source made its calls: active means hit-call score of the fitted dose curve at least 0.9, where 1 is the maximum; inactive means score below 0.9.
MEASUREMENT TYPE: AC50

Field: example entries. Status: answers known.
# COMPOUND, AC50
records = [
    ("Clc1cc(Cl)c(Cl)cc1Cl", "inactive"),
    ("CC(C)c1ccc(C(=O)N=C(N)N)cc1S(C)(=O)=O", "inactive"),
    ("COc1cc(S(=O)(=O)O)c(C)cc1N=Nc1c(O)ccc2cc(S(=O)(=O)O)ccc12", "inactive"),
    ("Cc1ccc2ncccc2c1", "inactive"),
    ("Cc1nc(-c2ccc3c(c2)CCN(CCC2CCC(NC(=O)/C=C/c4ccc(F)cc4)CC2)CC3)no1 (centres undefined)", "9.94 µM (active)"),
]

Lookup result for `Cc1ccc(C(C)C)c(O)c1` ; measured AC50: inactive

Lookup result for `CN[C@H]1CC[C@@H](c2ccc(Cl)c(Cl)c2)c2ccc(S(N)(=O)=O)cc21` ; measured AC50: 31.1 µM (active)

Lookup result for `Nc1ccc2c(c1)C(=O)c1ccccc1C2=O` ; measured AC50: inactive

Lookup result for `NCC1(Cc2noc(=O)[nH]2)CCCCC1` ; measured AC50: inactive
